Target: human Peroxisome Proliferator-activated Receptor alpha (PPARa), PPARA (gene 5465) (UniProt Q07869)
Sequence (Q07869 whole entry, looked up): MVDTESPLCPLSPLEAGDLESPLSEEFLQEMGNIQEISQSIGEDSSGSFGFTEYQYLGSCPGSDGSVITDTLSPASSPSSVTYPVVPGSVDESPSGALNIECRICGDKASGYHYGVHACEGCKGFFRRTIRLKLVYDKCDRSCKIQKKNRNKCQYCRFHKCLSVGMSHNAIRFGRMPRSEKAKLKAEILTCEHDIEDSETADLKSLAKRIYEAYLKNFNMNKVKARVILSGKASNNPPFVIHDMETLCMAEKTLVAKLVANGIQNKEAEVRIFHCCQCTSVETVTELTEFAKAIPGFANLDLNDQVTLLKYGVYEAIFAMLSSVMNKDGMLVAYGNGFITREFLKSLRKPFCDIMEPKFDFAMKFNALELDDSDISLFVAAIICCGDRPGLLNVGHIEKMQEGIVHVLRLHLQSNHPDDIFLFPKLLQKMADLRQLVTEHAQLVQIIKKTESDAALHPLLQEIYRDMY
Assay: ATG_PPARa_TRANS: Attagene TRANS-FACTORIAL HepG2 Assay for human Peroxisome Proliferator-activated Receptor alpha (PPARa) (AID 2283001)
Protocol: ATG_TRANS is a cell-based, multiplexed-readout assay that uses HepG2, a human liver cell line, with measurements taken at 24 hours after chemical dosing in a 24-well plate.ATG_PPARa_TRANS is one of 30 assay component(s) measured or calculated from the ATG_TRANS assay. […] This assay endpoint, ATG_PPARa_TRANS, was analyzed in the positive analysis fitting direction relative to DMSO as the negative control and baseline of activity. […]
Inconclusive results are not listed. Activity calls are given as the source filed them. The calls were made as follows: active = hit-call score of the fitted dose curve at least 0.9, where 1 is the maximum; inconclusive = response in the unintended direction; inactive = score below 0.9.
Allowed answers: active, inactive

CCCC1COC(Cn2cncn2)(c2ccc(Cl)cc2Cl)O1 (stereo unspecified)	inactive
CNC(=O)ON=CC(C)(C)SC	inactive
Cc1c(F)c(F)c(COC(=O)C2C(/C=C(\Cl)C(F)(F)F)C2(C)C)c(F)c1F (stereo unspecified)	inactive
CC(C)C1(C)N=C(c2nc3ccccc3cc2C(=O)O)NC1=O (stereo unspecified)	inactive
CCOC(=O)CC(SP(=S)(OC)OC)C(=O)OCC (stereo unspecified)	inactive
N#Cc1cc(Br)c(O)c(Br)c1	active
CCCCNC(=O)OCC#CI	inactive
C=CC1(C)OC(=O)N(c2cc(Cl)cc(Cl)c2)C1=O (stereo unspecified)	inactive
CCNc1nc(Cl)nc(NC(C)C)n1	inactive
O=C(Nc1ccccc1)Nc1ccnc(Cl)c1	inactive

Prompt line: How did this test come out for `COc1nc(C)nc(NC(=O)NS(=O)(=O)c2ccccc2CCC(F)(F)F)n1` ?
Response line: inactive

Prompt line: Query `COc1ccc(C(c2ccc(OC)cc2)C(Cl)(Cl)Cl)cc1` next
Response line: inactive
